system: Staphylococcus aureus; assay: Minimum inhibitory concentration against Staphylococcus aureus A4 (inoculum, 10e5 cfu per spot); format: functional
measurement_kind: MIC

Give the observed MIC of CC(=O)OCC1=C(C(=O)OC(C)(C)C)N2C(=O)[C@@H](Nc3nc4cc([N+](=O)[O-])ccc4[nH]3)C2SC1 (stereo partly drawn) for Staphylococcus aureus.
200 µg/mL

Give the observed MIC of CC(=O)OCC1=C(C(=O)OC(c2ccccc2)c2ccccc2)N2C(=O)[C@@H](Nc3nc4cc(CN)ccc4[nH]3)C2SC1 (stereo partly drawn) for Staphylococcus aureus.
32 µg/mL

Give the observed MIC of CC1=C(C(=O)OC(c2ccccc2)c2ccccc2)N2C(=O)[C@@H](NC3=NCCN3)C2SC1 (stereo partly drawn) for Staphylococcus aureus.
> 256 µg/mL

Give the observed MIC of CC1(C)S[C@@H]2[C@H](/N=C/N3CCCCCC3)C(=O)N2[C@H]1C(=O)O [AMDINOCILLIN] for Staphylococcus aureus.
> 256 µg/mL

Give the observed MIC of CC(=O)OCC1=C(C(=O)OC(c2ccccc2)c2ccccc2)N2C(=O)[C@@H](Nc3nc4cc(C(=O)O)ccc4[nH]3)C2SC1 (stereo partly drawn) for Staphylococcus aureus.
256 µg/mL

Give the observed MIC of CC(=O)OCC1=C(C(=O)OC(C)(C)C)N2C(=O)[C@@H](Nc3nc4cc(N)ccc4[nH]3)C2SC1 (stereo partly drawn) for Staphylococcus aureus.
32 µg/mL

Give the observed MIC of CC1=C(C(=O)OC(c2ccccc2)c2ccccc2)N2C(=O)[C@@H](NC3=NCCN3C)C2SC1 (stereo partly drawn) for Staphylococcus aureus.
> 200 µg/mL

Give the observed MIC of CC(=O)OCC1=C(C(=O)OC(c2ccccc2)c2ccccc2)N2C(=O)[C@@H](Nc3nc4c(C)cccc4[nH]3)C2SC1 (stereo partly drawn) for Staphylococcus aureus.
8 µg/mL

Give the observed MIC of CC(=O)OCC1=C(C(=O)OC(c2ccccc2)c2ccccc2)N2C(=O)[C@@H](Nc3nc4c(O)cccc4[nH]3)C2SC1 (stereo partly drawn) for Staphylococcus aureus.
32 µg/mL

Give the observed MIC of CC(=O)OCC1=C(C(=O)OC(c2ccccc2)c2ccccc2)N2C(=O)[C@@H](Nc3nc4cc(C(F)(F)F)ccc4[nH]3)C2SC1 (stereo partly drawn) for Staphylococcus aureus.
128 µg/mL

Give the observed MIC of CC(=O)OCC1=C(C(=O)OC(c2ccccc2)c2ccccc2)N2C(=O)[C@@H](Nc3nc4cc(C)ccc4[nH]3)C2SC1 (stereo partly drawn) for Staphylococcus aureus.
16 µg/mL

Give the observed MIC of CC(=O)OCC1=C(C(=O)OC(c2ccccc2)c2ccccc2)N2C(=O)[C@@H](Nc3nc4cc(F)ccc4[nH]3)C2SC1 (stereo partly drawn) for Staphylococcus aureus.
16 µg/mL

Give the observed MIC of CC(=O)OCC1=C(C(=O)OC(C)(C)C)N2C(=O)[C@@H](Nc3nc4ccccc4n3C)C2SC1 (stereo partly drawn) for Staphylococcus aureus.
> 256 µg/mL

====

test system: Staphylococcus aureus; assay: Minimum inhibitory concentration against Staphylococcus aureus A4 (inoculum, 10e5 cfu per spot); type: functional
measurement_kind: MIC

Give the observed MIC of Cn1nnnc1SCC1=C(C(=O)OC(C)(C)C)N2C(=O)[C@@H](NC3=NCCN3)C2SC1 (stereo partly drawn) for Staphylococcus aureus.
> 256 µg/mL

Give the observed MIC of CC1=C(C(=O)OC(C)(C)C)N2C(=O)[C@@H](Nc3nc4ccccc4n3CC(=O)OC(C)(C)C)C2SC1 (stereo partly drawn) for Staphylococcus aureus.
> 256 µg/mL

Give the observed MIC of CC1=C(C(=O)OC(c2ccccc2)c2ccccc2)N2C(=O)[C@@H](NC3=NC(c4ccc(C#N)cc4)CN3)C2SC1 (stereo partly drawn) for Staphylococcus aureus.
> 256 µg/mL
